Data origin: the supplement of paper PMC10627819

tested on: B. subtilis 168; test: Bliss interaction score (quartile over a dose matrix) (fitness difference); higher = more antagonism (negative = synergy);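 also: first quartile when negative (synergy) and third quartile when positive (antagonism)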
Readings of Bliss interaction score for the listed compounds
Just the number, please.

Recorded results for 2 compounds are shown here.
compound: CCCCCCCCCC(=O)N[C@@H](Cc1c[nH]c2ccccc12)C(=O)N[C@H](CC(N)=O)C(=O)N[C@@H](CC(=O)O)C(=O)N[C@@H]1C(=O)NCC(=O)N[C@@H](CCCN)C(=O)N[C@@H](CC(=O)O)C(=O)N[C@H](C)C(=O)N[C@@H](CC(=O)O)C(=O)NCC(=O)N[C@H](CO)C(=O)N[C@@H]([C@H](C)CC(=O)O)C(=O)N[C@@H](CC(=O)c2ccccc2N)C(=O)O[C@@H]1C [Daptomycin] + COc1ccc(C[C@H](N)C(=O)N[C@H]2[C@@H](O)[C@H](n3cnc4c(N(C)C)ncnc43)O[C@@H]2CO)cc1 [Puromycin]
observed: 0.0496

compound: CO/N=C(\C(=O)N[C@@H]1C(=O)N2C(C(=O)[O-])=C(C[N+]3(C)CCCC3)CS[C@H]12)c1csc(N)n1 [Cefepime] + CCN(CC)CCOC(=O)c1ccc(N)cc1 [Procaine]
observed: 0.0389

The record that follows has no Bliss interaction score shown yet.
q: Specify measured Bliss interaction score for CO/N=C(\C(=O)N[C@@H]1C(=O)N2C(C(=O)[O-])=C(C[N+]3(C)CCCC3)CS[C@H]12)c1csc(N)n1 [Cefepime] + CO[C@@H]1[C@@H](OC(N)=O)[C@@H](O)[C@H](Oc2ccc3c(O)c(NC(=O)c4ccc(O)c(CC=C(C)C)c4)c(=O)oc3c2C)OC1(C)C [Novobiocin] .
a: -0.104
